Each recorded value in this set is attributed to patent US20120021995A1.

biological target: T1, recombinant human TRAIL R2 (DR5)/Fc chimera (human, UniProt O14763 54-182); assay: SPR (Biacore), DR5-Fc captured by anti-Fc, ATRIMER analyte; apparent
T1 construct: bought (R&D Systems); not shown: Fc of the bought chimera (R&D Systems)
READOUT: pKd
Remember the convention: pKd equals -log10 of concentration in molar.

029-15.B9F (designed binder, ATRIMER; also called 2a1a) EPPTQKPKKIVNAKKDVVNTKMFEELKSRLDTLAQEVALLKEQQALQTVCLKGTKVHMKCFLAFTQTKTFHEASEDCISRGGTLSTPQTGSENDALYEYLRQSVGNEAEIWLGLNKRVWYRGWVDMTGARIAYKNWETEITAQPDGGMRRRRENCAVLSGAANGKWFDKRCRDQLPYICQFGIV yielded pKd of 7.37

GET /value?item= 029-15.A1H (designed binder, ATRIMER; also called 8b6b) EPPTQKPKKIVNAKKDVVNTKMFEELKSRLDTLAQEVALLKEQQALQTVCLKGTKVHMKCFLAFTQTKTFHEASEDCISRGGTLSTPQTGSENDALYEYLRQSVGNEAEIWLGLNRAVLRPRWVDMTGARIAYKNWETEITAQPDGGWVLGGKNCAVLSGAANGKWFDKRCRDQLPYICQFGIV &field=pKd returns 7.41

In plain terms, 029-15.A8G (designed binder, ATRIMER; also called 1a7b) EPPTQKPKKIVNAKKDVVNTKMFEELKSRLDTLAQEVALLKEQQALQTVCLKGTKVHMKCFLAFTQTKTFHEASEDCISRGGTLSTPQTGSENDALYEYLRQSVGNEAEIWLGLNRAWLRPRWVDMTGARIAYKNWETEITAQPDGGTLVSGENCAVLSGAANGKWFDKRCRDQLPYICQFGIV has a documented pKd of 7.81

Entry 029-15.B3D (designed binder, ATRIMER; also called 9b3d) EPPTQKPKKIVNAKKDVVNTKMFEELKSRLDTLAQEVALLKEQQALQTVCLKGTKVHMKCFLAFTQTKTFHEASEDCISRGGTLSTPQTGSENDALYEYLRQSVGNEAEIWLGLNELRTDGLWVDMTGARIAYKNWETEITAQPDGGVMRRSENCAVLSGAANGKWFDKRCRDQLPYICQFGIV , pKd reported as 6.05

Given item 029-15.A3C (designed binder, ATRIMER; also called 4a8c) EPPTQKPKKIVNAKKDVVNTKMFEELKSRLDTLAQEVALLKEQQALQTVCLKGTKVHMKCFLAFTQTKTFHEASEDCISRGGTLSTPQTGSENDALYEYLRQSVGNEAEIWLGLNRATLRPRWVDMTGARIAYKNWETEITAQPDGGKNCAVLSGAANGKWFDKRCRDQLPYICQFGIV , the value recorded as its pKd is 8.24
